- system_name: Substance-K receptor (Homo sapiens); further: in other assays of this panel Not Active means under 50% inhibition at 10 µM
- Sequence (P21452 whole entry): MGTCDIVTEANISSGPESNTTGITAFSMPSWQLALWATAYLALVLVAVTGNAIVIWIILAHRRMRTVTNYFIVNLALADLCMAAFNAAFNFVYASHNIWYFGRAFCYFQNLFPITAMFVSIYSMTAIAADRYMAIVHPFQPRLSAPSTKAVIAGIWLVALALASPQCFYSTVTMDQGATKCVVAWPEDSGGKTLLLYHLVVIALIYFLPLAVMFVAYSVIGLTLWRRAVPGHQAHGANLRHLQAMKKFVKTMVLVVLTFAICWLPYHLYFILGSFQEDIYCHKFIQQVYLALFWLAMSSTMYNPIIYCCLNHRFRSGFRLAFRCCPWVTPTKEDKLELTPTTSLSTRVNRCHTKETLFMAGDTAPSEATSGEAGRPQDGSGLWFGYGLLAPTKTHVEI
- Assay type: cell membranes, CHO, Membrane
- stated_conditions: cho
attribute_measured: IC50

CADMIUM ACETATE = Not Active
SODIUM NITROPRUSSIDE = Not Active
LEAD (II) ACETATE = Not Active
LIPOPOLYSACCHARIDE E. COLI O55:B5 = Not Active

* * *

- system_name: Glucocorticoid receptor (Homo sapiens); further: in other assays of this panel Not Active means under 50% inhibition at 10 µM
- Sequence (P04150 whole entry): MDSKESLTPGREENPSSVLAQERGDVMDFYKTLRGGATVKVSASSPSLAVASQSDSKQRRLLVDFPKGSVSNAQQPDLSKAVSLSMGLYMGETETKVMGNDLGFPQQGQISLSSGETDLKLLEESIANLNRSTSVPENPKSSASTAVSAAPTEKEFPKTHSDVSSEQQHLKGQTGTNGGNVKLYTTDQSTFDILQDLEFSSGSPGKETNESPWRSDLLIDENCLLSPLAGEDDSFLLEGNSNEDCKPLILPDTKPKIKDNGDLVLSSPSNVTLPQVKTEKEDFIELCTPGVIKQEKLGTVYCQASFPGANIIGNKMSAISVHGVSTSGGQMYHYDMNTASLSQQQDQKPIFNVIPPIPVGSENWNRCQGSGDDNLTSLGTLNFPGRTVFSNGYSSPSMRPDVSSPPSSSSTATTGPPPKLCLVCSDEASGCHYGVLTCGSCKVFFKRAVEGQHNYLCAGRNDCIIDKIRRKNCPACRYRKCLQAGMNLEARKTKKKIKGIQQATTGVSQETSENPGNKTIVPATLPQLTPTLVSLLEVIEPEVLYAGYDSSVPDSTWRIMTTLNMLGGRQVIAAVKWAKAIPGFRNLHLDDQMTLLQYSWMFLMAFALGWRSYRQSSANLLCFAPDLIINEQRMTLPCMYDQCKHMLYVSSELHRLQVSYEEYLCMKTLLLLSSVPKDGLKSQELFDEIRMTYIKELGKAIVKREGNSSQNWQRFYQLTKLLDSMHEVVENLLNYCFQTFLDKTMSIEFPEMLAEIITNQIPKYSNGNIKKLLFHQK
- assay_summary: biochemical
attribute_measured: pKi
Quick note: pKi means taking -log10 of the concentration in moles per liter.

C[C@]12CCC(=O)C=C1CC[C@@H]1[C@@H]2CC[C@@]2(C)[C@H]1CC[C@]2(C)O = 6.08
CC1(C)O[C@@H]2C[C@H]3[C@@H]4CCC5=CC(=O)C=C[C@]5(C)[C@@]4(F)[C@@H](O)C[C@]3(C)[C@]2(C(=O)CO)O1 [TRIAMCINOLONE ACETONIDE] = 8.70

# input compound: "CC(=O)[C@@]1(O)CC[C@H]2[C@@H]3C[C@H](C)C4=CC(=O)CC[C@]4(C)[C@H]3CC[C@@]21C" ; wanted: its pKi
8.07
